# SYSTEM: GlcNAc(b1-4)GlcNAc
# ASSAY PROCEDURE: glycan array binding signal (z-score within array); higher = stronger binding
# PARTICULARS: glycan notation: IUPAC condensed, linker removed
The full list was thinned out, with the strongest signals kept by preference.
PROPERTY: glycan array binding signal (z-score)
Just the number.

LecRKVI.2 (protein) RTTTNFAFRGFNGNQSKIRIEGAAMIKPDGLLRLTDRKSNVTGTAFYHKPVRLLNRNSTNVTIRSFSTSFVFVIIPSSSSNKGFGFTFTLSPTPYRLNAGSAQYLGVFNKENNGDPRNHVFAVEFDTVQGSRDDNTDRIGNDIGLNYNSRTSDLQEPVVYYNNDDHNKKEDFQLESGNPIQALLEYDGATQMLNVTVYPARLGFKPTKPLISQHVPKLLEIVQEEMYVGFTASTGKGQSSAHYVMGWSFSSGGERPIADVLILSELPPPPPNKAKKEGLNS; -0.232

Now look at this one.
Exam item: Fill in the blank: the reported glycan array binding signal (z-score) of rCNL (Clitocybe nebularis), B2ZRS9 (protein) SITPGTYNITNVAYTNRLIDLTGSNPAENTLIIGHHLNKTPSGYGNQQWTLVQLPHTTIYTMQAVNPQSYVRVRDDNLVDGAALVGSQQPTPVSIESAGNSGQFRIKIPNLGLALTLPSDANSTPIVLGEVDETSTNQLWAFESVSAV is ____.
Marked response: -0.304
